# STUDY TARGET: “empty” DR4-LZ (DRA*01:01/DRB1*04:01 ectodomains with Jun/Fos leucine zippers, non-covalent heterodimer displayed on yeast through Aga2p)
# EXPERIMENT DESCRIPTION: flow
# CONDITION PARAMETERS: chains peptide; modification not given
QUANTITY KIND: pKd
// pKd here means minus log10 of the molar concentration (mol/L)

Task: Fill in the blank: the reported pKd of PKYVKQNTLKLAT [Bio-HA306-318 (biotin-Ahx-…)] is ____.
Output: 4.48
